EXPERIMENTAL_TARGET: EGFR G719S T790M (Homo sapiens, UniProt P00533, G719S/T790M)
Construct: expressed in transfected cells; host or cells: Ba/F3
PROTOCOL: Ba/F3 drug screening, Cell Titer Glo, IC50 Mut/WT
Type: cell-based
EXPERIMENTAL_CONDITIONS: T790M-like-3S, 72 hours
PROPERTY: ratio of IC50 for cells with mutant EGFR to IC50 for cells with wildtype EGFR (Mut/WT)

COMPOUND	MEASURED_NUMBER
Cc1cc(C(=O)Nc2nc3cccc(Cl)c3n2[C@@H]2CCCCN(C(=O)/C=C/CN(C)C)C2)ccn1 [Nazartinib]	0.04811
COc1cc2ncnc(Nc3ccc(F)c(Cl)c3)c2cc1NC(=O)/C=C/CN1CCCCC1 [Dacomitinib]	3.776
CN(C)C/C=C/C(=O)Nc1cc2c(Nc3ccc(Cl)c(Br)c3)ncnc2cn1 [Tarlox-TKI]	3.949
C=CC(=O)Nc1cc(Nc2nccc(-n3cc(CN(C)C)c(-c4ccccc4)n3)n2)c(OC)cc1N1CCOCC1 [Lazertinib]	0.003464
C=CC(=O)Nc1cc(Nc2nccc(-c3c[nH]c4ccccc34)n2)c(OC)cc1N(C)CCN(C)C [AZ5104]	0.1839
C=CC(=O)Nc1cc(Nc2ncc(C(=O)OC(C)C)c(-c3cn(C)c4ccccc34)n2)c(OC)cc1N(C)CCN(C)C [TAK-788 (mobocertinib), mobocertinib]	1.302
C=CC(=O)Nc1cccc(Oc2nc(Nc3ccc(N4CCN(C)CC4)cc3)nc3ccsc23)c1 [Olmutinib]	0.02453

---

EXPERIMENTAL_TARGET: EGFR H773insNPH (Homo sapiens, UniProt P00533, INS773NPH)
Construct: expressed in transfected cells; host or cells: Ba/F3 cells, retroviral pBabe-Puro vector
PROTOCOL: Ba/F3 drug screening, Cell Titer Glo, IC50 Mut/WT
Type: cell-based
EXPERIMENTAL_CONDITIONS: Ex20, 72 hours
PROPERTY: ratio of IC50 for cells with mutant EGFR to IC50 for cells with wildtype EGFR (Mut/WT)

CHEMICAL_STRUCTURE	MEASURED_NUMBER
C=CC(=O)Nc1cc(Nc2nccc(-n3cc(CN(C)C)c(-c4ccccc4)n3)n2)c(OC)cc1N1CCOCC1	5.102
COc1cc2ncnc(Nc3cccc(Cl)c3F)c2cc1OC(=O)N1CCN(C)C[C@H]1C	1.561
C=CC(=O)Nc1cc(Nc2ncc(C(=O)OC(C)C)c(-c3cn(C)c4ccccc34)n2)c(OC)cc1N(C)CCN(C)C	0.2952

---

EXPERIMENTAL_TARGET: EGFR E709_T710del insD (Homo sapiens, UniProt P00533, DEL709-709/T710D)
Construct: expressed in transfected cells; host or cells: Ba/F3
PROTOCOL: Ba/F3 drug screening, Cell Titer Glo, IC50 Mut/WT
Assay type: cell-based
EXPERIMENTAL_CONDITIONS: PACC; E709_T710del insD; Ba/F3; 72 hours
PROPERTY: ratio of IC50 for cells with mutant EGFR to IC50 for cells with wildtype EGFR (Mut/WT)

CHEMICAL_STRUCTURE	EXPERIMENTAL_TARGET	RESULT
CNC(=O)CN1CCC(Oc2cc3c(Nc4cccc(Cl)c4F)ncnc3cc2OC)CC1	EGFR E709_T710del insD (Homo sapiens, UniProt P00533, DEL709-709/T710D)	1.754
COc1cc2ncnc(Nc3ccc(F)c(Cl)c3)c2cc1NC(=O)/C=C/CN1CCCCC1	EGFR E709_T710del insD (Homo sapiens, UniProt P00533, DEL709-709/T710D)	0.08391
COc1cc2ncnc(Nc3cccc(Cl)c3F)c2cc1OC(=O)N1CCN(C)C[C@H]1C	EGFR E709_T710del insD (Homo sapiens, UniProt P00533, DEL709-709/T710D)	0.2123
CN(C)C/C=C/C(=O)Nc1cc2c(Nc3ccc(Cl)c(Br)c3)ncnc2cn1	EGFR E709_T710del insD (Homo sapiens, UniProt P00533, DEL709-709/T710D)	0.782

---

EXPERIMENTAL_TARGET: EGFR S784F (Homo sapiens, UniProt P00533, S784F)
Construct: expressed in transfected cells; host or cells: Ba/F3 cells, retroviral pBabe-Puro vector (vector made by GeneScript from EGFR WT)
PROTOCOL: Ba/F3 drug screening, Cell Titer Glo, IC50 Mut/WT
Format: cell-based
EXPERIMENTAL_CONDITIONS: Classical-Like, 72 hours
Reported ratio of IC50 for cells with mutant EGFR to IC50 for cells with wildtype EGFR (Mut/WT) values are given for each entry in this list.
PROPERTY: ratio of IC50 for cells with mutant EGFR to IC50 for cells with wildtype EGFR (Mut/WT)

CHEMICAL_STRUCTURE	EXPERIMENTAL_TARGET	MEASURED_NUMBER
C=CC(=O)Nc1cc(Nc2ncc(C(=O)OC(C)C)c(-c3cn(C)c4ccccc34)n2)c(OC)cc1N(C)CCN(C)C	EGFR S784F (Homo sapiens, UniProt P00533, S784F)	0.01487
C=CC(=O)N[C@H]1C=C(C)c2c(-c3cnc4ccccc4c3)c3c(N)ncnc3n2C1	EGFR S784F (Homo sapiens, UniProt P00533, S784F)	0.01015
COc1cc2ncnc(Nc3cccc(Cl)c3F)c2cc1OC(=O)N1CCN(C)C[C@H]1C	EGFR S784F (Homo sapiens, UniProt P00533, S784F)	0.0702
C=CC(=O)N1CC[C@@H](Oc2nc(Nc3ccc(N4CCC(N5CCN(C)CC5)CC4)cc3)c(C(N)=O)nc2CC)C1	EGFR S784F (Homo sapiens, UniProt P00533, S784F)	0.3727

---

EXPERIMENTAL_TARGET: EGFR L858R T790M L718V (Homo sapiens, UniProt P00533, L718V/L858R/T790M)
Construct: expressed in transfected cells; host or cells: Ba/F3
PROTOCOL: Ba/F3 drug screening, Cell Titer Glo, IC50 Mut/WT
Type: cell-based
EXPERIMENTAL_CONDITIONS: T790M-like-3R, 72 hours
PROPERTY: ratio of IC50 for cells with mutant EGFR to IC50 for cells with wildtype EGFR (Mut/WT)

COMPOUND	MEASURED_NUMBER
C=CC(=O)Nc1cc(Nc2nccc(-c3c[nH]c4ccccc34)n2)c(OC)cc1N(C)CCN(C)C [AZ5104]	19.66
C=CC(=O)N1CC[C@@H](Oc2nc(Nc3ccc(N4CCC(N5CCN(C)CC5)CC4)cc3)c(C(N)=O)nc2CC)C1 [Naquotinib]	0.6413
C=CC(=O)N[C@H]1C=C(C)c2c(-c3cnc4ccccc4c3)c3c(N)ncnc3n2C1 [TAS 6417]	2.011
C=CC(=O)Nc1cc(Nc2ncc(C(=O)OC(C)C)c(-c3cn(C)c4ccccc34)n2)c(OC)cc1N(C)CCN(C)C [TAK-788 (mobocertinib), mobocertinib]	5.796
COc1cc2ncnc(Nc3ccc(F)c(Cl)c3)c2cc1NC(=O)/C=C/CN1CCCCC1 [Dacomitinib]	20.65
Cc1cc(C(=O)Nc2nc3cccc(Cl)c3n2[C@@H]2CCCCN(C(=O)/C=C/CN(C)C)C2)ccn1 [Nazartinib]	0.6592
CNC(=O)CN1CCC(Oc2cc3c(Nc4cccc(Cl)c4F)ncnc3cc2OC)CC1 [Sapatinib]	41.48
CN(C)C/C=C/C(=O)Nc1cc2c(Nc3ccc(Cl)c(Br)c3)ncnc2cn1 [Tarlox-TKI]	151.6
COc1cc2ncnc(Nc3cccc(Cl)c3F)c2cc1OC(=O)N1CCN(C)C[C@H]1C [AZD3759]	4.812
C=CC(=O)Nc1cc(Nc2nccc(-n3cc(CN(C)C)c(-c4ccccc4)n3)n2)c(OC)cc1N1CCOCC1 [Lazertinib]	0.5404
C=CC(=O)Nc1cccc(Oc2nc(Nc3ccc(N4CCN(C)CC4)cc3)nc3ccsc23)c1 [Olmutinib]	0.8754

---

EXPERIMENTAL_TARGET: EGFR L747P (Homo sapiens, UniProt P00533, L747P)
Construct: expressed in transfected cells; host or cells: Ba/F3
PROTOCOL: Ba/F3 drug screening, Cell Titer Glo, IC50 Mut/WT
Type: cell-based
EXPERIMENTAL_CONDITIONS: PACC; L747P; Ba/F3; 72 hours
# ratio of IC50 for cells with mutant EGFR to IC50 for cells with wildtype EGFR (Mut/WT) annotations
PROPERTY: ratio of IC50 for cells with mutant EGFR to IC50 for cells with wildtype EGFR (Mut/WT)

COMPOUND	EXPERIMENTAL_TARGET	MEASURED_NUMBER
CN(C)C/C=C/C(=O)Nc1cc2c(Nc3ccc(Cl)c(Br)c3)ncnc2cn1 [Tarlox-TKI]	EGFR L747P (Homo sapiens, UniProt P00533, L747P)	2.085
CNC(=O)CN1CCC(Oc2cc3c(Nc4cccc(Cl)c4F)ncnc3cc2OC)CC1 [Sapatinib]	EGFR L747P (Homo sapiens, UniProt P00533, L747P)	0.03076
COc1cc2ncnc(Nc3ccc(F)c(Cl)c3)c2cc1NC(=O)/C=C/CN1CCCCC1 [Dacomitinib]	EGFR L747P (Homo sapiens, UniProt P00533, L747P)	0.2972
COc1cc2ncnc(Nc3cccc(Cl)c3F)c2cc1OC(=O)N1CCN(C)C[C@H]1C [AZD3759]	EGFR L747P (Homo sapiens, UniProt P00533, L747P)	0.2937
